Test system: E57 (patient-derived glioblastoma stem cells of mesenchymal subtype)
Test: phenotypic distance (Euclidean, principal components) from DMSO controls (arbitrary units); higher = stronger morphological change
Details: 37 nM; exposure time: 72 h
Structures can show the parent of a compound that is named as a salt.
Overview of recorded phenotypic distance for various molecules

// known answers, use as guide
molecule: CCC[C@@H]1C[C@@H](C(=O)N[C@@H]([C@H]2O[C@H](SC)[C@H](O)[C@@H](O)[C@H]2O)[C@@H](C)O)N(C)C1 [Lincomycin hydrochloride]
data_value: 0.755

molecule: C[C@@H](O[C@H]1OCCN(Cc2n[nH]c(=O)[nH]2)[C@H]1c1ccc(F)cc1)c1cc(C(F)(F)F)cc(C(F)(F)F)c1 [Aprepitant]
data_value: 0.573

molecule: CNc1ccc2oc(C[C@H]3O[C@@]4(CC[C@H]3C)O[C@H]([C@H](C)C(=O)c3ccc[nH]3)[C@H](C)C[C@H]4C)nc2c1C(=O)O
data_value: 1.3

molecule: CC(=O)CC(c1ccc([N+](=O)[O-])cc1)c1c(O)c2ccccc2oc1=O (stereo unspecified)
data_value: 1.11

Hello, please tell me recorded phenotypic distance for this one: COc1ccc2[nH]c([S+]([O-])Cc3ncc(C)c(OC)c3C)nc2c1 (stereo unspecified)
0.343

Hello, please tell me recorded phenotypic distance for this one: CCC(=O)OCC(=O)[C@@]1(OC(=O)CC)[C@H](C)C[C@H]2[C@H]3[C@H]([C@@H](O)C[C@@]21C)[C@@]1(C)C=CC(=O)C=C1C[C@H]3Cl [Alclometasone dipropionate]
2.58

* * *

Overview of recorded surviving fraction for various compounds
System: E13 (patient-derived glioblastoma stem cells of classical subtype)
Assay: surviving fraction (nuclei count normalised to DMSO); higher = more cells surviving (less toxic)
Details: 3000 nM; exposure time: 72 h
Where a name gives a salt, the structure may show the parent alone.
Answer with the value's number alone.

// known answers, use as guide
compound: CCCCCCNC(=O)n1cc(F)c(=O)[nH]c1=O [Carmofur]
surviving fraction: 0.877
//
compound: CCC[C@@H]1C[C@@H](C(=O)N[C@@H]([C@H]2O[C@H](SC)[C@H](O)[C@@H](O)[C@H]2O)[C@@H](C)O)N(C)C1 [Lincomycin hydrochloride]
surviving fraction: 0.894
//
compound: c1ccc2c(c1)[I+]c1ccccc1-2 [Diphenyleneiodonium chloride]
surviving fraction: 0.251
//
compound: Clc1ccc(COC(Cn2ccnc2)c2ccc(Cl)cc2Cl)c(Cl)c1 (stereo not drawn) [Miconazole]
surviving fraction: 0.539
//
compound: O=C1c2c(O)ccc(O)c2C(=O)c2c(NCCNCCO)ccc(NCCNCCO)c21 [Mitoxantrone]
surviving fraction: 0.219
//
compound: Nc1ncn([C@@H]2O[C@H](CO)[C@@H](O)[C@H]2O)c(=O)n1 [5-azacytidine]
surviving fraction: 0.358
//
compound: C=CC(=O)Nc1cccc(Oc2nc(Nc3ccc(N4CCN(C)CC4)cc3)nc3ccsc23)c1 [Olmutinib]
surviving fraction: 0.453

Hello, please tell me recorded surviving fraction for this one: CC(=O)CC(c1ccc([N+](=O)[O-])cc1)c1c(O)c2ccccc2oc1=O (stereo not drawn) [Acenocoumarol]
0.767

* * *

Tested on: E57
Assay: phenotypic distance (Euclidean, principal components) from DMSO controls (arbitrary units); higher = stronger morphological change
Conditions: 37 nM; exposure time: 72 h
Where a name gives a salt, the structure may show the parent alone.
measurement_kind: phenotypic distance
Answer with the value's number alone.

compound: CC(C)C[C@H](NC(=O)CNC(=O)c1cc(Cl)ccc1Cl)B1OC(=O)C(CC(=O)O)(CC(=O)O)O1
system_name: E57
data_value: 11.3

compound: C=C[C@H]1CN2CC[C@H]1C[C@@H]2[C@@H](O)c1ccnc2ccc(OC)cc12 [Quinidine hydrochloride monohydrate]
system_name: E57
data_value: 0.42

compound: CC(C)C(=O)OCC(=O)[C@@]12O[C@H](C3CCCCC3)O[C@@H]1C[C@H]1[C@@H]3CCC4=CC(=O)C=C[C@]4(C)[C@H]3[C@@H](O)C[C@@]12C [Ciclesonide]
system_name: E57
data_value: 2.36

compound: C[C@H]1O[C@@H](O[C@H]2[C@@H](O)C[C@H](O[C@H]3[C@@H](O)C[C@H](O[C@H]4CC[C@@]5(C)[C@H](CC[C@@H]6[C@@H]5C[C@@H](O)[C@]5(C)[C@@H](C7=CC(=O)OC7)CC[C@]65O)C4)O[C@@H]3C)O[C@@H]2C)C[C@H](O)[C@@H]1O
system_name: E57
data_value: 5.52

Hello, please tell me recorded phenotypic distance for this one: CC(C)C[C@H](NC(=O)CNC(=O)c1cc(Cl)ccc1Cl)B(O)O
11

Hello, please tell me recorded phenotypic distance for this one: COc1cccc2c(NCc3ccccc3)nc(-n3c(N)nc4ccccc43)nc12
0.385

Hello, please tell me recorded phenotypic distance for this one: CCn1c(-c2nonc2N)nc2cnc(Oc3cccc(NC(=O)c4ccc(OCCN5CCOCC5)cc4)c3)cc21
0.775

* * *

Tested on: E28 (patient-derived glioblastoma stem cells of classical subtype)
Assay: surviving fraction (nuclei count normalised to DMSO); higher = more cells surviving (less toxic)
Conditions: 37.037 nM; exposure time: 72 h
Where a name gives a salt, the structure may show the parent alone.
Overview of recorded surviving fraction for various compounds
Answer with the value's number alone.

// known answers, use as guide
compound: Nc1ncn([C@@H]2O[C@H](CO)[C@@H](O)[C@H]2O)c(=O)n1
system_name: E28
surviving fraction: 0.711
--
compound: CCN(CC)CCCC(C)Nc1c2ccc(Cl)cc2nc2ccc(OC)cc12 (centres undefined) [Quinacrine dihydrochloride hydrate]
system_name: E28
surviving fraction: 0.987
--
compound: CC(C)C[C@H](NC(=O)[C@H](Cc1ccccc1)NC(=O)c1cnccn1)B(O)O
system_name: E28
surviving fraction: 0.0576
--
compound: C[C@@H](O)[C@H]1C(=O)N2C(C(=O)O)=C(S[C@@H]3CN[C@H](C(=O)N(C)C)C3)[C@H](C)[C@H]12
system_name: E28
surviving fraction: 1.12
--
compound: CC(C)C[C@H](NC(=O)[C@H](Cc1ccccc1)C[C@@H](O)[C@H](Cc1ccccc1)NC(=O)OC(C)(C)C)C(=O)N[C@@H](Cc1ccccc1)C(N)=O
system_name: E28
surviving fraction: 1.02
--
compound: C/C=C(\C)C(=O)N[C@@H](c1ccccc1)[C@@H](O)C(=O)O[C@H]1C[C@@]2(O)[C@@H](OC(=O)c3ccccc3)[C@@H]3[C@]4(OC(C)=O)CO[C@@H]4C[C@H](O)[C@@]3(C)C(=O)[C@H](OC(C)=O)C(=C1C)C2(C)C
system_name: E28
surviving fraction: 0.304
--
compound: Cc1ccc(NC(=O)c2ccc3c(c2)OCCO3)cc1NC(=O)c1ccc2nc(OCCN3CCCC3)ccc2c1
system_name: E28
surviving fraction: 0.346
--
compound: COc1cc([C@@H]2c3cc4c(cc3[C@@H](O[C@@H]3O[C@@H]5CO[C@@H](C)O[C@H]5[C@H](O)[C@H]3O)[C@H]3COC(=O)[C@H]23)OCO4)cc(OC)c1O [Etoposide]
system_name: E28
surviving fraction: 0.621

Specify the recorded surviving fraction for Cc1cc(C)c(CN2CCc3c(Cl)cc(-c4c(C)noc4C)c(Cl)c3C2=O)c(=O)[nH]1 , system: E28.
1.05

* * *

Overview of recorded phenotypic distance for various compounds
Tested on: E21 (patient-derived glioblastoma stem cells of mesenchymal subtype)
Experiment: phenotypic distance (Euclidean, principal components) from DMSO controls (arbitrary units); higher = stronger morphological change
Settings: 4.11523 nM; exposure time: 72 h
Counter-ions that a name gives are not always drawn.

// known answers, use as guide
compound: Cc1[nH]nc(C(F)(F)F)c1Cc1sc2c(c1C(=O)N1C[C@](C)(O)CO1)c(=O)n(C)c(=O)n2C(C)C
system_name: E21
phenotypic distance: 0.56
//
compound: O=C(O)c1ccc(-c2c[nH]c3ncc(-c4ccccc4)cc23)cc1C1CCCC1
system_name: E21
phenotypic distance: 0.656
//
compound: COc1cc2nc(N3CCN(C(=O)c4ccco4)CC3)nc(N)c2cc1OC [Prazosin hydrochloride]
system_name: E21
phenotypic distance: 0.712

Hello, please tell me recorded phenotypic distance for this one: C[C@@H](O)[C@H]1C(=O)N2C(C(=O)O)=C(S[C@@H]3CN[C@H](C(=O)N(C)C)C3)[C@H](C)[C@H]12
1.01

* * *

Test system: E34 (patient-derived glioblastoma stem cells of proneural subtype)
Assay: surviving fraction (nuclei count normalised to DMSO); higher = more cells surviving (less toxic)
Settings: 12.3 nM; exposure time: 72 h
# label = True if surviving fraction >= 0.9 else False

compound: NC(=O)c1ccccc1 [Benzamide]
qualitative_label: True
//
compound: COc1ccc([C@@H]2CC(=O)c3c(O)cc(O[C@@H]4O[C@H](CO[C@@H]5O[C@@H](C)[C@H](O)[C@@H](O)[C@H]5O)[C@@H](O)[C@H](O)[C@H]4O)cc3O2)cc1O
qualitative_label: False
//
compound: C[C@H]1Oc2cc(cnc2N)-c2c(nn(C)c2C#N)CN(C)C(=O)c2ccc(F)cc21
qualitative_label: True

Would you kindly look at the next entry?
// inclusive: surviving fraction at least 0.9? input: O=C(/C=C/c1cccnc1)NCCCCC1CCN(C(=O)c2ccccc2)CC1
False
